# maps each entry to its IC50
target: MOZ-KAT6A (Homo sapiens, UniProt Q92794, A567V); assay: Acetyltransferase biochemical assay (AlphaScreen), KAT6A
Sequence (Q92794 with tags, fused parts or gaps A567V): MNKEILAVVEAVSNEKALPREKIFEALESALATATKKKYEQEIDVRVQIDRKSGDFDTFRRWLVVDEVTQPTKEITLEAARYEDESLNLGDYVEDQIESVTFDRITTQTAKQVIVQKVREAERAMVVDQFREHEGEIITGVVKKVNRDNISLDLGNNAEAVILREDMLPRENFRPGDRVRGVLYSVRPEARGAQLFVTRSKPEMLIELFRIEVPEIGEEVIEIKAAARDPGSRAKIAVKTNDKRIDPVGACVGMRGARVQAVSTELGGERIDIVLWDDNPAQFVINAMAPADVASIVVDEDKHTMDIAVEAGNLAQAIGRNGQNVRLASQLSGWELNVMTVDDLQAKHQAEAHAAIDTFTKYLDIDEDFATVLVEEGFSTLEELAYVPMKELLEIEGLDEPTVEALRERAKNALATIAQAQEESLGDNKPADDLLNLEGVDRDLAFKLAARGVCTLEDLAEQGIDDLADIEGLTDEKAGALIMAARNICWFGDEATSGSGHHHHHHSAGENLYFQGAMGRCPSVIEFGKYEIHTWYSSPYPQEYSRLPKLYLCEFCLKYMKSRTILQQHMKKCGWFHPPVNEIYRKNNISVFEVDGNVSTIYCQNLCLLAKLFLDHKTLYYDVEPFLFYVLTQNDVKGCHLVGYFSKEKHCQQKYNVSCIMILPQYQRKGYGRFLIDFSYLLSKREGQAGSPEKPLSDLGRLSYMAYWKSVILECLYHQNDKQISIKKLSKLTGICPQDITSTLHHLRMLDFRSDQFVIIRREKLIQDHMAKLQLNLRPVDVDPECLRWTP
Output spec: scalar in µM, unitless text.

A selection of reference data follows.
INSERT INTO measurements (compound, subject_of_test, recorded_result) VALUES
  ('COc1ccc(-n2cccn2)cc1S(=O)(=O)Nc1noc2ccccc12 [Example 54]', 'MOZ-KAT6A (Homo sapiens, UniProt Q92794, A567V)', 63),
  ('COc1cccc(OC)c1S(=O)(=O)Nc1noc2cc(-c3ccncc3)cc(OC)c12 [Example 245]', 'MOZ-KAT6A (Homo sapiens, UniProt Q92794, A567V)', 3.9),
  ('CCc1ccc(OC)c(S(=O)(=O)Nc2noc3cccc(C4CC4)c23)c1 [Example 200]', 'MOZ-KAT6A (Homo sapiens, UniProt Q92794, A567V)', 0.364),
  ('COCc1cc(OC)c2c(NS(=O)(=O)c3c(OC)cccc3OC)noc2c1 [Example 173]', 'MOZ-KAT6A (Homo sapiens, UniProt Q92794, A567V)', 0.015),
  ('CCc1cc2c(c(S(=O)(=O)Nc3noc4cccc(Cl)c34)c1)OCC2 [Example 181]', 'MOZ-KAT6A (Homo sapiens, UniProt Q92794, A567V)', 1.06),
  ('COc1ccc(S(=O)(=O)Nc2noc3cc(CO)ccc23)c(OC)c1 [Example 167]', 'MOZ-KAT6A (Homo sapiens, UniProt Q92794, A567V)', 8.67);

Find the recorded IC50 belonging to O=S(=O)(Nc1noc2cccc(Cl)c12)c1ccc2nc(O)oc2c1 [Example 8] and report it. 113

Find the recorded IC50 belonging to COc1cccc(OCCO)c1S(=O)(=O)Nc1noc2cccc(OC)c12 [Example 220] and report it. 3.5

Find the recorded IC50 belonging to COc1cc(C)c(C)cc1S(=O)(=O)Nc1noc2cccc(Cl)c12 [Example 33] and report it. 6.85

Find the recorded IC50 belonging to CCOc1ccc2c(NS(=O)(=O)c3cc(CC)ccc3OC)noc2c1 [Example 139] and report it. 2.14

Find the recorded IC50 belonging to COc1ccc(C)cc1S(=O)(=O)Nc1noc2ccccc12 [Example 47] and report it. 12.9
